# Tested on: MDA-MB-468 breast
# experimentDescription: NCI tumour cell line growth inhibition, 384-well format
This listing pairs compounds with measured GI50.

compound: CN(C)/N=N/c1nc[nH]c1C(N)=O
recordedMeasurement: 30.4 µM

compound: CC(O)c1cc(C(=O)N[C@@H](C)Cn2ccc(-c3ccc(C#N)c(Cl)c3)n2)n[nH]1 (some centres undefined)
recordedMeasurement: 12 µM

compound: Cc1cc(Nc2cc(N)ncn2)c(=O)n2c1C(=O)NC21CCCCC1
recordedMeasurement: > 100 µM

Note: attention shifts to another entry.
Q: Endpoint output: GI50 of Cc1nc(Nc2ncc(C(=O)Nc3c(C)cccc3Cl)s2)cc(N2CCN(CCO)CC2)n1 . Value?
Result: 0.695 µM

###

// GI50 lookup, one value per entry
# System: HL-60(TB) leukemia
# experimentDescription: NCI tumour cell line growth inhibition, 384-well format

Completed entries (count: 4):
compound: Cc1cc(Nc2cc(N)ncn2)c(=O)n2c1C(=O)NC21CCCCC1
recordedMeasurement: > 100 µM
--
compound: CC(O)c1cc(C(=O)N[C@@H](C)Cn2ccc(-c3ccc(C#N)c(Cl)c3)n2)n[nH]1 (stereo not given in full)
recordedMeasurement: 28.9 µM
--
compound: CCN(c1cc(C#CCN2CCOCC2)cc(C(=O)NCc2c(C)cc(C)[nH]c2=O)c1C)C1CCC(N(C)CCOC)CC1 (stereo not given)
recordedMeasurement: > 100 µM
--
compound: Cc1nc(Nc2ncc(C(=O)Nc3c(C)cccc3Cl)s2)cc(N2CCN(CCO)CC2)n1
recordedMeasurement: 7.23 µM

Could you now consider this next compound?
Q: # lookup: GI50 of CN(C)/N=N/c1nc[nH]c1C(N)=O
Result: 6.42 µM

###

# Tested on: NCI/ADR-RES ovarian
# experimentDescription: NCI tumour cell line growth inhibition, 384-well format
quantityKind: GI50

Here are 3 molecules together with their reported answers.
molecule: Cc1nc(Nc2ncc(C(=O)Nc3c(C)cccc3Cl)s2)cc(N2CCN(CCO)CC2)n1
tgt: NCI/ADR-RES ovarian
GI50: 1.87 µM
--
molecule: CCN(c1cc(C#CCN2CCOCC2)cc(C(=O)NCc2c(C)cc(C)[nH]c2=O)c1C)C1CCC(N(C)CCOC)CC1 (centres undefined)
tgt: NCI/ADR-RES ovarian
GI50: > 100 µM
--
molecule: CC(O)c1cc(C(=O)N[C@@H](C)Cn2ccc(-c3ccc(C#N)c(Cl)c3)n2)n[nH]1 (some centres undefined)
tgt: NCI/ADR-RES ovarian
GI50: > 100 µM

Q: Short answer please: GI50, NCI/ADR-RES ovarian, entry Cc1cc(Nc2cc(N)ncn2)c(=O)n2c1C(=O)NC21CCCCC1
Result: > 100 µM

Hey, just so you know, these numbers are from PubChem BioAssay (NCI).
